assay: Cytotoxicity against mouse ScGT1 cells assessed as cell viability at 1 uM after 5 days by fluorescence plate reader analysis; assay type: cell-based; settings: read-out: Activity
Readings of viability at 120 h, 1 µM for the listed molecules
metric: viability at 120 h, 1 µM

smiles.code	result
Cc1ccc2nc(/C=C/c3ccc(N)cc3)ccc2c1	> 90%
Cc1ccc2nc(/C=C/c3ccccc3)ccc2c1	> 90%
COc1ccc2nc(/C=C/c3ccccc3)ccc2c1	60%

====

Readings of Papp for the listed compounds
assay: Permeability of the compound assessed as diffusion from donor plate through porcine brain lipid membrane into acceptor plate at pH 7.4 by PAMPA method; assay type: ADME; details: pig, read-out: permeability
metric: Papp (×10⁻⁶ cm/s)

smiles.code	metric	recorded.number
Cc1ccc2nc(/C=C/c3ccccc3)ccc2c1	Papp	3
COc1ccc2nc(/C=C/c3ccccc3)ccc2c1	Papp	8.5
Cc1ccc2nc(/C=C/c3ccc(N)cc3)ccc2c1	Papp	23.1

====

experiment: Cytotoxicity against mouse ScGT1 cells assessed as cell viability at 10 uM after 5 days by fluorescence plate reader analysis; type: cell-based; conditions: read-out: Activity

smiles.code	viability at 120 h, 10 µM, %
Cc1ccc2nc(/C=C/c3ccc(N)cc3)ccc2c1	60

====

Readings of viability at 120 h for the listed molecules
experiment: Cytotoxicity against mouse ScGT1 cells assessed as cell viability at EC50 concentration after 5 days by fluorescence plate reader analysis; format: cell-based; details: read-out: Activity

molecule	unit.info	viability at 120 h
Cc1ccc2nc(/C=C/c3ccc(N)cc3)ccc2c1	%	94.6
CCN(CC)CCCC(C)Nc1c2ccc(Cl)cc2nc2ccc(OC)cc12 (stereo not given) [QUINACRINE]	%	100
O=C(CN1CCCC1)Nc1ccc(Cc2ccc(NC(=O)CN3CCCC3)cc2)cc1	%	93.4
COc1ccc2nc(/C=C/c3ccccc3)ccc2c1	%	74.9
Cc1ccc2nc(/C=C/c3ccccc3)ccc2c1	%	90.5

Value source: ChEMBL document CHEMBL2321832
